System: RAW264.7
Assay: Cytotoxicity against mouse RAW264.7 cells after 24 hrs
Format: cell-based
Settings: raw264.7, 24 h
Parameter measured: Activity

C[C@@]12C[C@@]3(O)O[C@@H](O1)[C@]1(COC(=O)c4ccc(O)cc4)[C@H]3C[C@@]12O[C@@H]1O[C@H](COC(=O)c2cc(O)c(O)c(O)c2)[C@@H](O)[C@H](O)[C@H]1O
Non-toxic
C[C@@]12C[C@@]3(OS(=O)O)O[C@@H](O1)[C@]1(COC(=O)c4ccc(O)cc4)[C@H]3C[C@@]12O[C@@H]1O[C@H](CO)[C@@H](O)[C@H](O)[C@H]1O [OXYPAEONIFLORIN SULFONATE]
Non-toxic
